# ASSAY DETAILS: Stability of compound in Sprague-Dawley rat serum assessed as remaining parent compound at 5 mins by RP-HPLC analysis
# Assay type: ADME
# SETTINGS: read-out: Stability
PROPERTY MEASURED: remaining at 5 min

entry_smiles=N=C(N)NCCC[C@H](NC(=O)[C@@H](N)Cc1ccc(O)c([125I])c1)C(N)=O data_value=72.5%

###

# ASSAY DETAILS: Octanol-PBS partition coefficient, log P of the compound at pH 7.4 by shake flask method
# Format: physicochemical
PROPERTY MEASURED: logD

entry_smiles=N=C(N)NCCC[C@H](NC(=O)[C@@H](N)Cc1ccc(O)c([125I])c1)C(N)=O data_value=-1.8

Source: ChEMBL document CHEMBL3817816
